molecular target: Human HER3, endogenous, on human cancer cell lines (SK-Br-3, MCF7, BT-474) (human, UniProt P21860 20-1342); test: cell-based or functional assay
Sequence (P21860 20-1342): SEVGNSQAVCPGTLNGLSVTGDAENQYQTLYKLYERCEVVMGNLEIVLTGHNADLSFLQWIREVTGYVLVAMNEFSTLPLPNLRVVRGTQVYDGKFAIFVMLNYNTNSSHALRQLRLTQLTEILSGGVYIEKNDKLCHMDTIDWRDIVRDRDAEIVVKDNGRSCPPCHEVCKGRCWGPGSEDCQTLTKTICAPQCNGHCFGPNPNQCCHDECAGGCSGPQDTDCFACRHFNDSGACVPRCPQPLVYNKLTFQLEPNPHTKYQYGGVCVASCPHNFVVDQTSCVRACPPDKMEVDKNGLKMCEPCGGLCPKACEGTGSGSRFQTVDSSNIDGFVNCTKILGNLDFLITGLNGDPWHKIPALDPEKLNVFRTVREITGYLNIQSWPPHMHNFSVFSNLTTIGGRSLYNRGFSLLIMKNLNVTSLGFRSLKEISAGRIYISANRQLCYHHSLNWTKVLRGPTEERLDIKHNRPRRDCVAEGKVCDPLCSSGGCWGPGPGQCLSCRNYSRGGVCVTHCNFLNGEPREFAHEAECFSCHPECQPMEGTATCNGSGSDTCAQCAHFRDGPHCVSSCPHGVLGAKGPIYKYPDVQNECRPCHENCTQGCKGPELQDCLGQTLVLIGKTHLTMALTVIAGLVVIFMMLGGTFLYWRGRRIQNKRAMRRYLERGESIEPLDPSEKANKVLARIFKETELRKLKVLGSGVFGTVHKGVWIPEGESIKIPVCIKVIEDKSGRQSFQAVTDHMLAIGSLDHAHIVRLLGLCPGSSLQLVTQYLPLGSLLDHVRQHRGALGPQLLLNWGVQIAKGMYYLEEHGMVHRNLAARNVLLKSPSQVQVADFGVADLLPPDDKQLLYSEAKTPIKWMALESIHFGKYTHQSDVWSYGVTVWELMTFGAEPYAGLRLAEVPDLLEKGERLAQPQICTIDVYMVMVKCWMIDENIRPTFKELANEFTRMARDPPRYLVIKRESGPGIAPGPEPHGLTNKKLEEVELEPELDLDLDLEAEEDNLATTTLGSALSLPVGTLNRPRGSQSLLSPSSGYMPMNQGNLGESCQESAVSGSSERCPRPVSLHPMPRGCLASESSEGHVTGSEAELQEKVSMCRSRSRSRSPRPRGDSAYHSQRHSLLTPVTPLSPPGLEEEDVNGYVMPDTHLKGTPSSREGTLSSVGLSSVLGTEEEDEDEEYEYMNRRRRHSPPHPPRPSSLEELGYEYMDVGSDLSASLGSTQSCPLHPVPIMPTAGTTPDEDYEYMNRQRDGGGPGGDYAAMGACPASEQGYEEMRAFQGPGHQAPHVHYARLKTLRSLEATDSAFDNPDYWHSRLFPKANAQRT
measurement_label: SK-Br-3 pHER3 IC50 (pM)
Reply with just the number (in pM).

// known answers, use as guide
MOR13763 (antibody, human IgG1, kappa, V domains shown, tested as IgG) VH: QVQLVQSGAEVKKPGESLKISCKGSGYSFTSYWVAWVRQMPGKGLEWMGIIYPGQSDTIYSPSFQGQVTISADKSISTAYLQWSSLKASDTAMYYCARVHIIQPPSAWSYNAMDVWGQGTLVTVSS VL: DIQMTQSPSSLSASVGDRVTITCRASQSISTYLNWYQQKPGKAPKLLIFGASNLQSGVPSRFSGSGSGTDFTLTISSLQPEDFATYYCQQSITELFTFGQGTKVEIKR: 107
MOR13765 (antibody, human IgG1, kappa, V domains shown, tested as IgG) VH: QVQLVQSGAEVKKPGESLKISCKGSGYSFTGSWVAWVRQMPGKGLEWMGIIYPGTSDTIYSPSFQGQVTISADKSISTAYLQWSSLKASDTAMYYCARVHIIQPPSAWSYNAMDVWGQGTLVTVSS VL: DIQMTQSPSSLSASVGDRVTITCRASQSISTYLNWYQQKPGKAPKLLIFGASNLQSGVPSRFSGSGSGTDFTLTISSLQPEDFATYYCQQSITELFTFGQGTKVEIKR: 227

Read the next record carefully.
Data point: MOR12510 (antibody, human IgG1, kappa, V domains shown, tested as IgG) VH: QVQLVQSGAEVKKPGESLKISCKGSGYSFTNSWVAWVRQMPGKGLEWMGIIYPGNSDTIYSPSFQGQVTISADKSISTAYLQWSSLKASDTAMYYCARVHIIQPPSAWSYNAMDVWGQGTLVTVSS VL: DIQMTQSPSSLSASVGDRVTITCRASQSISTYLNWYQQKPGKAPKLLIFGASNLQSGVPSRFSGSGSGTDFTLTISSLQPEDFATYYCQQDIDEPWTFGQGTKVEIKR ; SK-Br-3 pHER3 IC50 = 157
